Below, each entry is listed with its recorded Cmax.
Experiment: Pharmacokinetic study in rats (oral gavage and tail vein injection, plasma LC-MS/MS)
Format: in vivo
Details: male, rat, SD rats, Po, 3 mg/kg, read-out: Cmax

- Compound: "C[C@H](C1CC1)N(C)C(=O)OCc1c(-c2ccc(C#CC3(CC(=O)O)CC3)cn2)nnn1C"
  Cmax: "800 to 5000 ng/mL"
- Compound: "Cc1nc(-c2nnn(C)c2CNC(=O)OCCC(C)C)ccc1C#CC1(CC(=O)O)CC1"
  Cmax: "800 to 5000 ng/mL"
- Compound: "Cc1nc(-c2nnn(C)c2COc2nccc(C3CC(F)(F)C3)n2)ccc1C#CC1(CC(=O)O)CC1"
  Cmax: "800 to 5000 ng/mL"
- Compound: "CCCN(C)C(=O)OCc1c(-c2ccc(O[C@H]3CCC[C@H](C(=O)O)C3)c(C)n2)nnn1C [Control compound 1, reference compound]"
  Cmax: "985 ng/mL"
- Compound: "Cc1nc(-c2nnn(C)c2CNc2nccc(C3CCC3)n2)ccc1C#CC1(CC(=O)O)CC1"
  Cmax: "800 to 5000 ng/mL"
- Compound: "Cc1nc(-c2nnn(C)c2NC(=O)O[C@H](C)CC(C)(F)F)ccc1C#C[C@@H]1CC[C@H]1C(=O)O (mixture of isomers)"
  Cmax: "800 to 5000 ng/mL"

###

Assay: Pharmacokinetic study in rats (oral gavage and tail vein injection, plasma LC-MS/MS)
Format: in vivo
Details: rat, SD rats, Iv, 1 mg/kg
Below, each entry is listed with its recorded half-life.

- Molecule: "CCCC[C@@H](C)OC(=O)Nc1c(-c2ccc(C#CC3(CC(=O)O)CC3)c(C)n2)nnn1C"
  Unit Tag: "h"
  half-life: 5.12
- Molecule: "Cc1nc(-c2nnn(C)c2NC(=O)O[C@H](C)CC(C)(C)F)ccc1C#CC1(CC(=O)O)CC1"
  Unit Tag: "h"
  half-life: 13.8
- Molecule: "CCCc1ccnc(NCc2c(-c3ccc(C#CC4(CC(=O)O)CC4)c(C)n3)nnn2C)n1"
  Unit Tag: "h"
  half-life: 7.21
- Molecule: "CCc1nc(-c2nnn(C)c2NC(=O)O[C@H](C)CC(C)(F)F)ccc1C#CC1(CC(=O)O)CC1"
  Unit Tag: "h"
  half-life: 14.5
- Molecule: "CCCCN(C)C(=O)OCc1c(-c2ccc(C#CC3(CC(=O)O)CC3)c(F)n2)nnn1C"
  Unit Tag: "h"
  half-life: 4.72
- Molecule: "Cc1nc(-c2nnn(C)c2COC(=O)N(C)CC2CCC2)ccc1C#CC1CC1C(=O)O (racemic)"
  Unit Tag: "h"
  half-life: 3.03
- Molecule: "Cc1nc(-c2onc(C)c2NC(=O)O[C@H](C)CC(C)(F)F)ccc1C#CC1(CC(=O)O)CC1"
  Unit Tag: "h"
  half-life: 3.69
- Molecule: "Cc1nc(-c2nnn(C)c2NC(=O)O[C@H](C)c2ccccc2Cl)ccc1C#C[C@H]1CC[C@@H]1C(=O)O"
  Unit Tag: "h"
  half-life: 5.93
- Molecule: "Cc1nc(-c2nnn(C)c2CNC(=O)OCc2ccccc2)ccc1C#CC1(CC(=O)O)CC1"
  Unit Tag: "h"
  half-life: 5.03
- Molecule: "Cc1nc(-c2nnn(C)c2NC(=O)O[C@H](C)CC(C)(F)F)ccc1C#C[C@H]1CCC[C@@H]1C(=O)O (single isomer, unassigned)"
  Unit Tag: "h"
  half-life: 7.01
- Molecule: "CCC(F)(F)CC(C)OC(=O)Nc1c(-c2ccc(C#CC3CCC3C(=O)O)c(C)n2)nnn1C (single isomer, unassigned)"
  Unit Tag: "h"
  half-life: 7.22
- Molecule: "CCc1nc(-c2noc(C)c2NC(=O)O[C@H](C)C(F)(F)CC)ccc1C#CC1(CC(=O)O)CC(OC)C1 (some centres unmarked)"
  Unit Tag: "h"
  half-life: 3.92
- Molecule: "CCC(F)(F)[C@@H](C)OC(=O)Nc1c(-c2ccc(C#CC3(CC(=O)O)CC(OC)C3)c(C)n2)noc1C (some centres unmarked)"
  Unit Tag: "h"
  half-life: 2.35
- Molecule: "CCCC(C)OC(=O)Nc1c(-c2ccc(C#CC3CCCC3C(=O)O)c(C)n2)nnn1C (single isomer, unassigned)"
  Unit Tag: "h"
  half-life: 3.52
- Molecule: "CCC(F)(F)[C@@H](C)OC(=O)Nc1c(-c2ccc(C#CC3(CC(=O)O)CC(OC)C3)c(C(F)(F)F)n2)nnn1C (some centres unmarked)"
  Unit Tag: "h"
  half-life: 5.44
- Molecule: "Cc1nc(-c2nnn(C)c2NC(=O)OC(C)CC(C)(F)F)ccc1C#CC1(CC(=O)O)CC1 (racemic)"
  Unit Tag: "h"
  half-life: 9.33
- Molecule: "CCC(F)(F)[C@@H](C)OC(=O)Nc1c(-c2ccc(C#CC3(CC(=O)O)CC(OC)C3)c(C)n2)nnn1C (some centres unmarked)"
  Unit Tag: "h"
  half-life: 5.82

###

Assay: Pharmacokinetic study in rats (oral gavage and tail vein injection, plasma LC-MS/MS)
Type: in vivo
Settings: rat, SD rats, Po, 1 mg/kg

- Molecule: "Cc1nc(-c2nnn(C)c2COC(=O)N(C)CC2CCC2)ccc1C#CC1CC1C(=O)O (racemic)"
  AUC(0-t): "1200 to 3000 ng·h/mL"
- Molecule: "Cc1nc(-c2nnn(C)c2NC(=O)OC(C)CC2CC2)ccc1C#CC1CCC1C(=O)O (single isomer, unassigned)"
  AUC(0-t): "5000 to 10000 ng·h/mL"
- Molecule: "CCCc1ccnc(NCc2c(-c3ccc(C#CC4(CC(=O)O)CC4)c(C)n3)nnn2C)n1"
  AUC(0-t): "1200 to 3000 ng·h/mL"
- Molecule: "CCCC(C)OC(=O)Nc1c(-c2ccc(C#CC3CCCC3C(=O)O)c(C)n2)nnn1C (single isomer, unassigned)"
  AUC(0-t): "5000 to 10000 ng·h/mL"
- Molecule: "CCC(F)(F)[C@@H](C)OC(=O)Nc1c(-c2ccc(C#CC3(CC(=O)O)CC(OC)C3)c(C(F)(F)F)n2)nnn1C (stereo partly shown)"
  AUC(0-t): "5000 to 10000 ng·h/mL"
- Molecule: "CCC(F)(F)[C@@H](C)OC(=O)Nc1c(-c2ccc(C#CC3(CC(=O)O)CC3)c(C)n2)noc1C"
  AUC(0-t): "3000 to 5000 ng·h/mL"
- Molecule: "CCc1nc(-c2nnn(C)c2NC(=O)O[C@H](C)CC(C)(F)F)ccc1C#CC1(CC(=O)O)CC1"
  AUC(0-t): "3000 to 5000 ng·h/mL"
- Molecule: "Cc1nc(-c2nnn(C)c2NC(=O)O[C@H](C)CC(C)(F)F)ccc1C#C[C@H]1CCC[C@@H]1C(=O)O (single isomer, unassigned)"
  AUC(0-t): "3000 to 5000 ng·h/mL"
- Molecule: "CCCCN(C)C(=O)OCc1c(-c2ccc(C#CC3(CC(=O)O)CC3)c(F)n2)nnn1C"
  AUC(0-t): "1200 to 3000 ng·h/mL"
- Molecule: "Cc1nc(-c2nnn(C)c2NC(=O)OC(C)C23CC(C2)C3)ccc1C#CC1(CC(=O)O)CC1 (racemic)"
  AUC(0-t): "5000 to 10000 ng·h/mL"

###

Assay: Pharmacokinetic study in rats (oral gavage and tail vein injection, plasma LC-MS/MS)
Format: in vivo
Settings: male, rat, SD rats, Iv, 0.63 mg/kg, read-out: Cmax
Readout Label: Cmax

- Smiles: "Cc1nc(-c2nnn(C)c2NC(=O)O[C@H](C)C(F)(F)C(C)C)ccc1C#CC1(CC(=O)O)CC1"
  Readout Label: "Cmax"
  Reading: "800 to 5000 ng/mL"

###

Assay: Pharmacokinetic study in rats (oral gavage and tail vein injection, plasma LC-MS/MS)
Format: in vivo
Conditions: male, rat, SD rats, Iv, 1 mg/kg
Protocol: Male SPF-grade SD rats (Beijing Vital River Laboratory Animal Technology Co., Ltd.) with a body weight range of 200 to 250 g were used. […] The concentration of compounds in plasma was detected by LC-MS/MS (AB SCIEX Qtrap4500). Data were analyzed using WinNonlin (version 5.2.1 Pharsight, Mountain View, CA) with a non-compartmental model to obtain PK parameters (including Cmax, C0, Tmax, AUClast, AUCinf, T1/2, etc.). […]
Readout Label: half-life (h)

- Compound: "Cc1nc(-c2nnn(C)c2NC(=O)OC(C)C23CC(F)(C2)C3)ccc1C#CC1(CC(=O)O)CC1 (stereo not shown)"
  Reading: 9.86

###

Biological target: hLPAR1 (human lysophosphatidic acid receptor 1, Accession No.: NM_001401.4) (Homo sapiens, UniProt Q92633)
Sequence (Q92633 whole entry): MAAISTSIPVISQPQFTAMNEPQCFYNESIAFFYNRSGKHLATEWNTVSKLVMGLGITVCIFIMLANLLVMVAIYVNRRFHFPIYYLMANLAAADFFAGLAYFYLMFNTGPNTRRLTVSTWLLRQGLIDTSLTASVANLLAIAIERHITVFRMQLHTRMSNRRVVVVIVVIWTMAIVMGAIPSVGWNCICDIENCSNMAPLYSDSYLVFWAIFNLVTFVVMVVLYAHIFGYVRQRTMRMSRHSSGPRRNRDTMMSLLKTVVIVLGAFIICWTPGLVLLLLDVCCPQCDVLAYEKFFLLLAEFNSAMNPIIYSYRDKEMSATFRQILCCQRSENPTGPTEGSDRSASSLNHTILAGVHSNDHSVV
Assay: cell-based
Conditions: LPAR1 inhibitory activity IC50, Table 1; FLIPR method, CHO-K1 cells overexpressing hLPAR1
Below, each entry is listed with its recorded log10 IC50.
Readout Label: log10 IC50 (log10 of the value in nM)

- Compound: "Cc1nc(-c2nnn(C)c2NC(=O)O[C@H](C)CC2CC2)ccc1C#CC1(CC(=O)O)CC1"
  Reading: 1.39
- Compound: "Cc1nc(-c2nnn(C)c2NC(=O)O[C@H](C)C(C)C)ccc1C#CC1(CC(=O)O)CC1"
  Reading: 2.06
- Compound: "Cc1nc(-c2nnn(C)c2Nc2cncc(OC(C)C)n2)ccc1C#CC1(CC(=O)O)CC1"
  Reading: 1.64
- Compound: "Cc1nc(-c2nnn(C)c2NC(=O)O[C@H](C)CC(C)(F)F)ccc1C#C[C@@H]1CCC[C@H]1C(=O)O (single isomer, unassigned)"
  Reading: 1.26
- Compound: "Cc1nc(-c2nnn(C)c2NC(=O)O[C@H](C)CC(C)C)ccc1C#C[C@@H]1CC[C@H]1C(=O)O"
  Reading: 1.04
- Compound: "Cc1nc(-c2nnn(C)c2NC(=O)O[C@H](C)C23CC(C2)C3)ccc1C#CC1(CC(=O)O)CC1"
  Reading: 1.24
- Compound: "Cc1nc(-c2nnn(C)c2NC(=O)OC(C)C(C)(C)C)ccc1C#CC1(CC(=O)O)CC1 (stereo not shown)"
  Reading: 2.09
- Compound: "Cc1nc(-c2nnn(C)c2NC(=O)O[C@H](C)CC(C)(F)F)ccc1C#C[C@H]1CCC[C@@H]1C(=O)O (single isomer, unassigned)"
  Reading: 1.41
- Compound: "CCCCN(C)C(=O)OCc1c(-c2ccc(C#CC3(CC(=O)O)CC3)c(F)n2)nnn1C"
  Reading: 1.75
- Compound: "Cc1nc(-c2nnn(C)c2NC(=O)OC(C)C2CC2(F)F)ccc1C#CC1(CC(=O)O)CC1 (stereo not shown)"
  Reading: 2.24

Hey, just so you know, these numbers are from patent EP4755881A1.
